experiment: logP determination via retention times, calibrated with unbranched alkan-2-ones; type: physicochemical; conditions: method *: HPLC reversed-phase C 18, temperature 40° C.; mobile phase 0.1% aqueous formic acid and acetonitrile; linear gradient 10% to 95% acetonitrile
reported-endpoint: logP

Some entries whose results are on file:
* CN1CCN(c2cccc(Nc3ncc(Cl)c(NCC4CC4)n3)c2)C1=O | 1.58*
* O=C1CCCN1c1cccc(Nc2ncc(I)c(NC3CC3)n2)c1 | 1.6*
* N#Cc1cccc(Nc2ncc(F)c(NC3CC3)n2)c1 | 1.61*

We next turn to a different compound, shown below.
Query :: # logP lookup, item `CC(C)c1cccc(Nc2ncc(Cl)c(NC3CC3)n2)c1`
Result :: 2.63*
